test system: tet operator sequence; test: β-galactosidase activity of a tetracycline-regulated promoter in transformed E. coli with revTetR, in the presence and absence of anhydrotetracycline (atc); assay type: cell-based, Escherichia coli; conditions: RevTetR isolate cultured in the presence of anhydrotetracycline (ATC)
reported.property: β-Galactosidase Activity, Cultured With ATC

molecule	assay.value
TetRrev6-3: revTetR(BD) V99G H100P (protein, Modified tetracycline repressor, revTetR(BD) V99G H100P) MSRLDKSKVINSALELLNEVGIEGLTTRKLAQKLGVEQPTLYWHVKNKRALLDALAVEILARHHDYSLPAAGESWQSFLRNNAMSFRRALLRYRDGAKGPLGTRPDEKQYDTVETQLRFMTENGFSLRDGLYAISAVSHFTLGAVLEQQEHTAALTDRPAAPDENLPPLLREALQIMDSDDGEQAFLHGLESLIRGFEVQLTALLQIV	1.3657
